- target or system: Mitogen-activated protein kinase 14 (Homo sapiens, UniProt Q16539)
- Sequence (Q16539 whole entry): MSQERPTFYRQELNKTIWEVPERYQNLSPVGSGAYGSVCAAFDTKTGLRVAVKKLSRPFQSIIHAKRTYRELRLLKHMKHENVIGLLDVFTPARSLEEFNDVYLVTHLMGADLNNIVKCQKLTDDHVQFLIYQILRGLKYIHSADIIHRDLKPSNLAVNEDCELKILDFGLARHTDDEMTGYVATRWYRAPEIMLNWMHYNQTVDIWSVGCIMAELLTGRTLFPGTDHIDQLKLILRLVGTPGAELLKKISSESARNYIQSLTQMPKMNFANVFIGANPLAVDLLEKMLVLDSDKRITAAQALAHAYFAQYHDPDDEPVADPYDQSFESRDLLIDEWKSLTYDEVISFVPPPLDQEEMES
- protocol: Inhibition of p38alpha at 30 uM by microfluidic mobility shift assay
measured metric: inhibition (%)
Numbers only, in %.

entry smiles | inhibition / %
Cc1cc2[nH]nc(N)c2c(N2CCOCC2)n1 | -3

Answer for every listed entry: what is its inhibition? The entries follow.
1. COc1cccc(-c2cc3c(c(N)nn3C)c(=O)[nH]2)c1
2. Cc1cc2c(c(NS(C)(=O)=O)nn2C)c(=O)[nH]1
3. CC(C)(C)c1cc2nn(-c3ccccc3)c(N)c2c(=O)[nH]1
4. COCCNc1nc(C)cc2nn(-c3ccccc3)c(N)c12
5. Cc1cc2c(c(N)nn2C)c(N2CC[C@H](O)C2)n1

Response given:
[2, 0, 85, 3, 0]
